tgt: His tagged PTPN2 (TC45) protein (Homo sapiens, UniProt P17706)
Sequence (P17706 with tags, fused parts or gaps isoform P17706-2): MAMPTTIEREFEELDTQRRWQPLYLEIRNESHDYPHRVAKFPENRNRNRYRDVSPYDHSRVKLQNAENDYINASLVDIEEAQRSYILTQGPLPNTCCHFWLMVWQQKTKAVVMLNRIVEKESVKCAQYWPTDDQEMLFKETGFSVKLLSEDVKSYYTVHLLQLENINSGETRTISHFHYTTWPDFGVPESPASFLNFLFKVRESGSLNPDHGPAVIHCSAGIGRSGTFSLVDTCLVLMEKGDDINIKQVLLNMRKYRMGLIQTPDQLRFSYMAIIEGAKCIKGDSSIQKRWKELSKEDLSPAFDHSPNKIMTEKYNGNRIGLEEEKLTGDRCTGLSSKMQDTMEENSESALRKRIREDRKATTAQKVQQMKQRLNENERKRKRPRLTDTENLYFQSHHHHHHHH
pIC50: −log10 of the molar value.
metric: pIC50

Sample answers from the record:
Look up pIC50 of CC(C)CCCC1(N)CCc2cc(O)c(N3CC(=O)NS3(=O)=O)c(F)c2C1 (stereo not drawn) [Compound 254] and report it.
7.00 to 8.00

Determine its reported pIC50: Cc1noc(C)c1CNC1CCc2cc(O)c(N3CC(=O)NS3(=O)=O)c(F)c2C1 (stereo not drawn) [Compound 287]
7.00 to 8.00

Identify the reported pIC50 for the following entry. O=C1CN(c2c(O)cc3c(c2F)CC(NCC(F)(F)c2ccccc2)CC3)S(=O)(=O)N1 (stereo not drawn) [Compound 125]
8.00 to 9.00

Retrieve pIC50 measured for O=C1CN(c2c(O)cc3c(c2F)CC(NCCC(O)(C(F)(F)F)C(F)(F)F)CC3)S(=O)(=O)N1 (stereo not drawn) [Compound 130] and print it.
8.00 to 9.00

New cases:
Input CC(C)CCNC1CCc2cc(O)c(N3CC(=O)NS3(=O)=O)c(F)c2C1 (stereo not drawn) [Compound 102] , output reported pIC50.
> 9.00

Report measured pIC50; entry is CC(C)OCCNC1CCc2cc(O)c(N3CC(=O)NS3(=O)=O)c(F)c2C1 (stereo not drawn) [Compound 186]
7.00 to 8.00

Please give measured pIC50 of the following entry: O=C1CN(c2c(O)cc3c(c2F)C[C@@H](NCCCC(F)(F)F)CC3)S(=O)(=O)N1 (single isomer, unassigned) [Compound 147]
7.00 to 8.00

* * *

Record: pIC50 reported on His tagged full-length PTPN1 protein (Homo sapiens, UniProt P18031).
Sequence (P18031 with tags, fused parts or gaps): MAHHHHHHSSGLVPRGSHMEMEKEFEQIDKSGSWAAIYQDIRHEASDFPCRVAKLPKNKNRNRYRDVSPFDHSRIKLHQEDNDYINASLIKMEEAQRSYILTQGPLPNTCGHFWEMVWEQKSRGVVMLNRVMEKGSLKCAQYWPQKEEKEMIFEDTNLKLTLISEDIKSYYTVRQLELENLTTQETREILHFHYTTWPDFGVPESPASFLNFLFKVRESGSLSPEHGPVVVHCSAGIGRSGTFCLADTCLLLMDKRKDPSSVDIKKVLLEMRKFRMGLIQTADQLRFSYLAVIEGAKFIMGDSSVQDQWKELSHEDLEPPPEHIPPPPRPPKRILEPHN
pIC50: −log10 of the molar value.

Illustrative cases are given below, each with its answer.
Check the records and state pIC50 for O=C1CN(c2c(O)cc3c(c2F)C[C@@H](NCCC2CC2)CC3)S(=O)(=O)N1 (single isomer, unassigned)
7.00 to 8.00

Tell me pIC50 reported for CC(C)CC(=N)NC1CCc2cc(O)c(N3CC(=O)NS3(=O)=O)c(F)c2C1 (stereo not shown)
7.00 to 8.00

Output measured pIC50 for this item: O=C1CN(c2c(O)cc3c(c2F)CCC(NCC2CC2)C3)S(=O)(=O)N1 (stereo not shown)
7.00 to 8.00

Here's the next entry for you.
Identify the reported pIC50 for the following entry. CC1(C)CC1CCCN1CCc2cc(O)c(N3CC(=O)NS3(=O)=O)c(F)c2C1 (stereo not shown)
8.00 to 9.00
